Assay: Solubility by eye observation with stepwise addition of solution
Format: physicochemical
Conditions: polyethylene glycol 300, organic solvent or mixture, thermodynamic from solid, 100 w/v % Polyethylene glycol 300
reported-endpoint: solubility

compound	assay-value
CCS(=O)(=O)c1cccc(-c2cc(C(=O)NC3CCN(C)CC3)c(C)c3[nH]c4ncc(C)cc4c23)c1.Cl [compound A1 hydrochloride]	< 1100 µg/mL

====

Test: Solubility by eye observation with stepwise addition of solution
Type: physicochemical
Conditions: ethanol, organic solvent or mixture, thermodynamic from solid, 100 w/v % Ethanol

molecule	solubility
CCS(=O)(=O)c1cccc(-c2cc(C(=O)NC3CCN(C)CC3)c(C)c3[nH]c4ncc(C)cc4c23)c1.Cl [compound A1 hydrochloride]	< 1200 µg/mL
